EXPERIMENTAL TARGET: Adrenergic receptor alpha-2 (Rattus norvegicus, UniProt P22086+P19328+P22909)
METHOD NOTES: In vitro binding affinity against Alpha-2 adrenergic receptor of rat cerebral cortex using [3H]RX-821002
Format: tissue-based
OBSERVABLE: log10 Ki (log10 of the value in nM)
Please keep in mind that the values are log10 of Ki expressed in nM.

Known log10 Ki results, listed for orientation:
O=C(c1cccc(CN2CCC(c3ccccc3)C2)c1)N1CCCCC1 (configuration not stated)	1.38
O=C1c2ccccc2S(=O)(=O)N1CCCCN1CCC(c2ccc(Cl)cc2)C1 (configuration not stated)	1.75
O=C1c2ccccc2S(=O)(=O)N1CCCCN1CCC(c2ccc(F)cc2)C1 (configuration not stated)	2.52
O=C1c2ccccc2S(=O)(=O)N1CCCCN1CCC(c2ccccc2)C1 (configuration not stated)	1.20
O=C(c1cccc(CN2CCC(c3ccc(Cl)cc3)C2)c1)N1CCCCC1 (configuration not stated)	1.64

Give log10 Ki for each listed item.
1. O=C1c2ccccc2CN1CCCCN1CCC(c2ccc(Cl)cc2)C1 (configuration not stated)
2. O=C1c2ccccc2CN1CCCCN1CCC(c2ccccc2)C1 (configuration not stated)

1.08
1.04

====

EXPERIMENTAL TARGET: 5-hydroxytryptamine receptor 2A (Rattus norvegicus)
Sequence (P14842 whole entry): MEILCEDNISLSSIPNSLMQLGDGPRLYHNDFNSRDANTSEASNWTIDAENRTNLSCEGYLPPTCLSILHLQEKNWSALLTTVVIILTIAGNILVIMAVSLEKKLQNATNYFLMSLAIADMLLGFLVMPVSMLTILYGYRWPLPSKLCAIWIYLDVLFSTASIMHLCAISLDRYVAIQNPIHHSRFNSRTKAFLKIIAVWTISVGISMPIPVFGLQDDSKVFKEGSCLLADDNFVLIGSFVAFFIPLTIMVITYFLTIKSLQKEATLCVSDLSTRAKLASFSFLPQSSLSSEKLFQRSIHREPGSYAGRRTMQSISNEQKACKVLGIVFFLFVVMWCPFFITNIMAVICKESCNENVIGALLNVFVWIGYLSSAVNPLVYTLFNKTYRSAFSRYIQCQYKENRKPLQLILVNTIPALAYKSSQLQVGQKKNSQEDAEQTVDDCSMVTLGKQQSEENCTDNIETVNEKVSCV
Give measured pKi for each item. Keep answers brief.
Answers are plain numbers, as −log10 of the molar value.

These recorded examples may help you get a feel for the data.
O=C1c2ccccc2S(=O)(=O)N1CCCCN1CCC(c2ccccc2)C1 (centres undefined)	7.47
O=C1c2ccccc2CN1CCCCN1CCC(c2ccc(Cl)cc2)C1 (centres undefined)	6.74

# next molecule below
Which measured pKi value corresponds to O=C(c1cccc(CN2CCC(c3ccccc3)C2)c1)N1CCCCC1 (centres undefined) ?
6.49

====

Please provide measured pKi for the entries that follow.
EXPERIMENTAL TARGET: 5-hydroxytryptamine receptor 1A (Rattus norvegicus)
Sequence (P19327 whole entry): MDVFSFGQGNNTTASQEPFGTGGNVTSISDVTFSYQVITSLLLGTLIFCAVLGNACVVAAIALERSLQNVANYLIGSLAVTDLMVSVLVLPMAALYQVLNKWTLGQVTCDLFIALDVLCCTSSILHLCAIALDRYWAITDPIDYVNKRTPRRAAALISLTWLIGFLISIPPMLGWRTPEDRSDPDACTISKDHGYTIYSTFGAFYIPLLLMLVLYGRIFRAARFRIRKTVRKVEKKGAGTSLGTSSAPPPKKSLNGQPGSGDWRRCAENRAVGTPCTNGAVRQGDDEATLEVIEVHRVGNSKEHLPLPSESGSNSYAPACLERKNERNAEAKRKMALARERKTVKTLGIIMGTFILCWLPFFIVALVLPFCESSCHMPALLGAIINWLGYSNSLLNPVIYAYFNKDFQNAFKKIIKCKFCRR
Give bare numbers, as −log10 of the molar value.

O=C1c2ccccc2CN1CCCCN1CCC(c2ccccc2)C1 (configuration not stated)	7.94

Now for the compound whose pKi we want.
For O=C1c2ccccc2S(=O)(=O)N1CCCCN1CCC(c2ccc(Cl)cc2)C1 (configuration not stated) , what is its reported pKi?
8.59

====

Provide the reported pKi of each item.
EXPERIMENTAL TARGET: D(2) dopamine receptor (Rattus norvegicus, UniProt P61169)
Sequence (P61169 whole entry): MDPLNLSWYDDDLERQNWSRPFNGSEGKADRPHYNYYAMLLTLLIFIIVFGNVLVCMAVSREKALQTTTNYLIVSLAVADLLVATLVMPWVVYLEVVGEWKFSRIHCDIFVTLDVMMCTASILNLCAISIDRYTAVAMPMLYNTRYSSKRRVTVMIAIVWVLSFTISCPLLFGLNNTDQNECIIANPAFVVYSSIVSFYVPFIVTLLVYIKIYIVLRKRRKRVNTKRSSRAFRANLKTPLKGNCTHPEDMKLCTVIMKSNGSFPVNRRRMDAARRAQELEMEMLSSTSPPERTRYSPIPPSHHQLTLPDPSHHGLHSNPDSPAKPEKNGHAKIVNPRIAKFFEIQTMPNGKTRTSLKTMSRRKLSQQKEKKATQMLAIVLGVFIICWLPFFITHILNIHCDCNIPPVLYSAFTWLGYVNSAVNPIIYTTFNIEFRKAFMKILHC
METHOD NOTES: In vitro binding affinity against Dopamine receptor D2 of rat striatum using [3H]raclopride
Numbers only, as −log10 of the molar value.

Use the examples below as a reference point.
O=C1c2ccccc2S(=O)(=O)N1CCCCN1CCC(c2ccc(F)cc2)C1 (configuration not stated)	6.58
O=C1c2ccccc2CN1CCCCN1CCC(c2ccccc2)C1 (configuration not stated)	7.11
O=C1c2ccccc2S(=O)(=O)N1CCCCN1CCC(c2ccccc2)C1 (configuration not stated)	6.71
O=C(c1cccc(CN2CCC(c3ccc(Cl)cc3)C2)c1)N1CCCCC1 (configuration not stated)	6.48
O=C(c1cccc(CN2CCC(c3ccccc3)C2)c1)N1CCCCC1 (configuration not stated)	6.11

Consider the following items and state reported pKi for each.
1. O=C1c2ccccc2CN1CCCCN1CCC(c2ccc(Cl)cc2)C1 (configuration not stated)
2. O=C1c2ccccc2S(=O)(=O)N1CCCCN1CCC(c2ccc(Cl)cc2)C1 (configuration not stated)

1: 6.73; 2: 6.49
